tgt: human recombinant sGC enzyme (Homo sapiens (Human), UniProt Q02108+Q02153)
test description: Size Exclusion Chromatography (SEC) competition binding assay using [3H] Ex-77B as the radioligand
measurement parameters: [3H] Ex-77B radioligand, 24 hours at 37° C.
measured metric: pKi
Scale note: pKi = -log10(concentration in M).

compound="CC1(c2cccc(-c3nn[nH]n3)c2)C(=O)Nc2nc(-c3nn(CCC(F)(F)C(F)(F)F)c4cc(Cl)ccc34)nc(N)c21 (single isomer, unassigned) [Example 251B]" test_value=9.74
compound="CC1(c2ccc(CCC(=O)O)cn2)C(=O)Nc2nc(-c3nn(CCC(F)(F)C(F)(F)F)c4cc(Cl)ccc34)nc(N)c21 (stereo not drawn) [Example 119B]" test_value=9.53
compound="CC1(c2ccc(C(=O)O)cc2)C(=O)Nc2nc(-c3nn(CCC(F)(F)C(F)(F)F)c4cc(Cl)ccc34)nc(N)c21 (stereo not drawn) [Example 155B]" test_value=9.38

Exercise: Name the value of pKi reported for CCCCn1nc(-c2nc(N)c3c(n2)NC(=O)[C@@]3(C)c2ccc(CCC(=O)O)cc2)c2ccc(Cl)cc21 [Example 38B] when tested on human recombinant sGC enzyme (Homo sapiens (Human), UniProt Q02108+Q02153).
Solution: 9.84

Exercise: Send back human recombinant sGC enzyme (Homo sapiens (Human), UniProt Q02108+Q02153) pKi of CC(C)(Cc1coc(C2(C)C(=O)Nc3nc(-c4nn(CC5CCCCO5)c5ncccc45)nc(N)c32)n1)C(=O)O (single isomer, unassigned) [Example 124AA] only.
Solution: 9.30

Exercise: Enter measured pKi, system human recombinant sGC enzyme (Homo sapiens (Human), UniProt Q02108+Q02153), for the compound shown: CC(C)(Cc1coc(C2(C)C(=O)Nc3nc(-c4nn(Cc5cccc(F)c5)c5cc(F)ccc45)nc(N)c32)n1)C(=O)O (stereo not drawn) [Example 195A]
Solution: 10.04

----------
Parameter: pEC50. Scope: all listed entries.
tgt: sGC α1/β1 heterodimer (Homo sapiens (Human), UniProt Q02108+Q02153)
test description: Cell-based sGC functional assay (cyclic GMP assay for sGC activator: CASA assay)
measurement parameters: inflection point, 4P fit; CHO-K1/sGC cells; read-out: IP
Units for pEC50: none; it is -log10 of a concentration expressed in mol/L.

compound="C[C@@]1(c2nc(CCC(=O)O)cs2)C(=O)Nc2nc(-c3nn(CCC(F)(F)C(F)(F)F)c4ncccc34)nc(N)c21 (single isomer, unassigned) [Example 82B]" test_value=5.86
compound="Cc1cccc(Cn2nc(-c3nc(N)c4c(n3)NC(=O)[C@@]4(C)c3ccc(CCC(=O)O)cc3)c3ccc(Cl)cc32)c1 [Example 66B]" test_value=6.62
compound="Cc1cccc(Cn2nc(-c3nc(N)c4c(n3)NC(=O)C4(C)c3nc(CC(C)(C)C(=O)O)co3)c3ccccc32)c1F (stereo not drawn) [Example 233A]" test_value=6.69

Exercise: Quickly give me recorded pEC50 for Cc1ccc2c(-c3nc(N)c4c(n3)NC(=O)[C@@]4(C)c3nc(CC(C)(C)C(=O)O)cs3)nn(Cc3ccc(C)c(F)c3F)c2n1 [Example 75A]
Solution: 6.62

Exercise: Name the recorded pEC50 of the compound listed here: CC1CCC(Cn2nc(-c3nc(N)c4c(n3)NC(=O)C4(C)c3nc(CC(C)(C)C(=O)O)co3)c3ccccc32)CC1 (single isomer, unassigned) [Example 231AA]
Solution: 6.95

Exercise: Supply recorded pEC50 for Cc1ccc(F)c(Cn2nc(-c3nc(N)c4c(n3)NC(=O)C4(C)c3nc(CC(C)(C)C(=O)O)co3)c3ccc(Cl)cc32)c1 (stereo not drawn) [Example 213A] here.
Solution: 6.08
